molecular target: GSPT1 (Homo sapiens, UniProt P15170+Q96SW2); test: HiBiT degradation assay, GSPT1, Procedure A; assay type: cell-based; set-up: HiBit-GSPT1 KI HEK293(LgBit) Cells; host or cells: HEK293(LgBit) knock-in cells; details: six hours incubation
Sequence (P15170 whole entry): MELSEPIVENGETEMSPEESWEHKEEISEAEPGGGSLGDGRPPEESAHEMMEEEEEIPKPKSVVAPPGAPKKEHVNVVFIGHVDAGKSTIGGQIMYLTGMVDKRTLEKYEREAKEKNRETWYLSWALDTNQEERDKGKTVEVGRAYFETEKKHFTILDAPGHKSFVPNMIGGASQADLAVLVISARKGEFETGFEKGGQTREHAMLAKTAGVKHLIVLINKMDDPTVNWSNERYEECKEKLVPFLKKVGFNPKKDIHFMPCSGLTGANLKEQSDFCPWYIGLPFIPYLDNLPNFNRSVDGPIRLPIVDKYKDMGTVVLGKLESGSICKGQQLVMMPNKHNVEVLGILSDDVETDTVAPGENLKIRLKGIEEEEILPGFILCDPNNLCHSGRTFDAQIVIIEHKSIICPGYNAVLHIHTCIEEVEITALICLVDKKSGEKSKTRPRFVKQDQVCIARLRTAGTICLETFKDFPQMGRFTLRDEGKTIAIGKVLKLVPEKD
Sequence (Q96SW2 whole entry): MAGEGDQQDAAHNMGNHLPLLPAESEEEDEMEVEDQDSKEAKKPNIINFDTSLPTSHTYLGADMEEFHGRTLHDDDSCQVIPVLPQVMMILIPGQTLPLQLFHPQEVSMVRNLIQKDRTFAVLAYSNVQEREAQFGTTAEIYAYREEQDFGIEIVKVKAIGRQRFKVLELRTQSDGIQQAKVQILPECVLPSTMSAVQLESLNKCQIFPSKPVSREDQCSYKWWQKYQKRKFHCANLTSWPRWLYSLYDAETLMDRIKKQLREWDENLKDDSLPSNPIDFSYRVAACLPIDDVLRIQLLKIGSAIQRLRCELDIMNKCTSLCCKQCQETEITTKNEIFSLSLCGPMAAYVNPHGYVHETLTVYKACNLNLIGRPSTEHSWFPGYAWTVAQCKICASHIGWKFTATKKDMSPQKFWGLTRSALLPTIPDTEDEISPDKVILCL
Sequence (Q16531 whole entry partner): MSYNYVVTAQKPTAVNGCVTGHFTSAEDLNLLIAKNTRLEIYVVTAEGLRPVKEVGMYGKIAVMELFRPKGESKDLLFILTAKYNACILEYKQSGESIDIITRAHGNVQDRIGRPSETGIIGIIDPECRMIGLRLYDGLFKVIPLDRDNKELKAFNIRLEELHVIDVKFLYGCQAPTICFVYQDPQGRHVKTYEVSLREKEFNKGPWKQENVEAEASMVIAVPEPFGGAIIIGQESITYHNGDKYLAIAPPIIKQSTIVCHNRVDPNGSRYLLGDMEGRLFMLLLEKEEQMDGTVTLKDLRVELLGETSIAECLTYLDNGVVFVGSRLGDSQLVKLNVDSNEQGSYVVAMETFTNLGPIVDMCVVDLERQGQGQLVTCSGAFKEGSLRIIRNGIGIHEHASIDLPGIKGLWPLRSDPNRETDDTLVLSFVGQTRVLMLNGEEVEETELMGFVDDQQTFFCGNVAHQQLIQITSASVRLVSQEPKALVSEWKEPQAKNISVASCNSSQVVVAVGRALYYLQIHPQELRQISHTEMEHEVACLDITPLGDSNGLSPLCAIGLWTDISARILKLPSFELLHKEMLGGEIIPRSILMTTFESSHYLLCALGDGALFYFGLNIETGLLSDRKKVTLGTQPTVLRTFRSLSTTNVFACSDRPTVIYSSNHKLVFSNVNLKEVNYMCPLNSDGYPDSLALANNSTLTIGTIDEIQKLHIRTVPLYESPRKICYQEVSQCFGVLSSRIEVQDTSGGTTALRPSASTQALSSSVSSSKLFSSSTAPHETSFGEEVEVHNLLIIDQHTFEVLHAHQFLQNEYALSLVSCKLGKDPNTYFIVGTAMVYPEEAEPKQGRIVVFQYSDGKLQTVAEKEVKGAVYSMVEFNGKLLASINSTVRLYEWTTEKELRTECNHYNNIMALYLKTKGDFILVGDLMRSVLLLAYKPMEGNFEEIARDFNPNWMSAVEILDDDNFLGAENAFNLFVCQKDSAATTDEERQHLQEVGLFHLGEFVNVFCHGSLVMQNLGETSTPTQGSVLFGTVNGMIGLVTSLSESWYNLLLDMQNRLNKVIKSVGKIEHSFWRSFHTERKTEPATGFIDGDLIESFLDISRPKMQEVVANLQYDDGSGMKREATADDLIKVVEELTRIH
Entries and their DC50

Consider the reported DC50 for these molecules:
- molecule: "Cn1ncc(-c2ccc3c(c2)CN(C2CCC(=O)NC2=O)C3=O)c1-c1cccc(C#N)c1 (stereo not shown)"
  measuredTarget: "GSPT1 (Homo sapiens, UniProt P15170+Q96SW2)"
  DC50: "≥ 25 nM"
- molecule: "COc1ccc(-c2c(-c3ccc4c(c3)CN(C3CCC(=O)NC3=O)C4=O)cnn2C)cc1 (stereo not shown)"
  measuredTarget: "GSPT1 (Homo sapiens, UniProt P15170+Q96SW2)"
  DC50: "≥ 25 nM"
- molecule: "Cn1ncc(-c2ccc3c(c2)CN(C2CCC(=O)NC2=O)C3=O)c1-c1cccc2c1CCC2 (stereo not shown)"
  measuredTarget: "GSPT1 (Homo sapiens, UniProt P15170+Q96SW2)"
  DC50: "≥ 25 nM"
- molecule: "COc1ccc(Cl)cc1-c1c(-c2ccc3c(c2)CN(C2CCC(=O)NC2=O)C3=O)ncn1C (stereo not shown)"
  measuredTarget: "GSPT1 (Homo sapiens, UniProt P15170+Q96SW2)"
  DC50: "≥ 25 nM"

// next item, DC50 requested
Query string: Record lookup: for GSPT1 (Homo sapiens, UniProt P15170+Q96SW2), what DC50 belongs to Cn1c(C2CC2)nc(-c2ccc3c(c2)CN(C2CCC(=O)NC2=O)C3=O)c1-c1cncnc1 (stereo not shown) ?
Result string: ≥ 25 nM

----------
biological target: CK1α (Homo sapiens, UniProt P48729+Q96SW2); construct: CSNK1A1-HiBit KI HEK293(LgBit) Cells; host or cells: HEK293(LgBit) knock-in cells; assay: HiBiT degradation assay, CK1α, Procedure A; assay type: cell-based; details: six hours
Sequence (P48729 whole entry): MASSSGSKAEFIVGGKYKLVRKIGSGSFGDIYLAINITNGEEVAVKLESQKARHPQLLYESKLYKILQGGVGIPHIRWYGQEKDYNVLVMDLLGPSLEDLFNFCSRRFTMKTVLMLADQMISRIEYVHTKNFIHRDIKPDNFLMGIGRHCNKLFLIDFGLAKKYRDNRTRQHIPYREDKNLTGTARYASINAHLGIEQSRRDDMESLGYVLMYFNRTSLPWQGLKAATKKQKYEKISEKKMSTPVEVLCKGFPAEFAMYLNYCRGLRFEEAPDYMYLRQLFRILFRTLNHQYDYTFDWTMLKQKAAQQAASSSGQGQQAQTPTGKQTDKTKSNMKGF
Sequence (Q96SW2 whole entry): as the sequence (Q96SW2 whole entry) above
Sequence (Q16531 whole entry partner): as the sequence (Q16531 whole entry partner) above
property: DC50

Consider the reported DC50 for these compounds:
- compound: "[2H]C([2H])([2H])n1ncc(-c2ccc3c(c2)CN(C2CCC(=O)NC2=O)C3=O)c1-c1ccc(OC(F)F)cc1 (stereo not shown) [Example 436]"
  property: "DC50"
  result: "< 25 nM"
- compound: "Cn1ncc(-c2ccc3c(c2)CN(C2CCC(=O)NC2=O)C3=O)c1-c1ccc2c(c1)OC(F)(F)O2 (stereo not shown) [Example 542]"
  property: "DC50"
  result: "< 25 nM"
- compound: "Cn1ccc(-c2c(-c3ccc4c(c3)CN(C3CCC(=O)NC3=O)C4=O)ncn2C)c1 (stereo not shown) [Example 521]"
  property: "DC50"
  result: "< 25 nM"
- compound: "Cn1cnc(-c2ccc3c(c2)CN(C2CCC(=O)NC2=O)C3=O)c1-c1cc2ccccc2[nH]1 (stereo not shown) [Example 527]"
  property: "DC50"
  result: "< 25 nM"
- compound: "Cn1cc(-c2ccc3c(c2)CN(C2CCC(=O)NC2=O)C3=O)nc1-c1ccc2c(c1)CCC(=O)N2 (stereo not shown) [Example 678]"
  property: "DC50"
  result: "≥ 25 nM"

Query string: Record lookup: for CK1α (Homo sapiens, UniProt P48729+Q96SW2), what DC50 belongs to Cn1cnc(-c2ccc3c(c2)CN(C2CCC(=O)NC2=O)C3=O)c1-c1c[nH]c2ccccc12 (stereo not shown) [Example 509] ?
Result string: < 25 nM

Query string: Okay, and Cn1cnc(-c2ccc3c(c2)CN(C2CCC(=O)NC2=O)C3=O)c1C1=CCCCC1 (stereo not shown) [Example 595] ?
Result string: < 25 nM

Query string: Okay, and Cc1ncccc1-c1c(-c2ccc3c(c2)CN(C2CCC(=O)NC2=O)C3=O)cnn1C (stereo not shown) [Example 472] ?
Result string: < 25 nM

----------
biological target: GSPT1 (Homo sapiens, UniProt P15170+Q96SW2); experiment: HiBiT degradation assay, GSPT1, Procedure A; type: cell-based; set-up: HiBit-GSPT1 KI HEK293(LgBit) Cells; host or cells: HEK293(LgBit) knock-in cells; conditions: six hours
Entries and their DC50

Consider the reported DC50 for these molecules:
- molecule: "Cn1ncc(-c2ccc3c(c2)CN(C2CCC(=O)NC2=O)C3=O)c1-c1ccc2nc[nH]c2c1 (centres unmarked) [Example 460]"
  DC50: "≥ 25 nM"
- molecule: "Cn1cnc(-c2ccc3c(c2)CN(C2CCC(=O)NC2=O)C3=O)c1-c1cccs1 (centres unmarked) [Example 506]"
  DC50: "< 25 nM"
- molecule: "Cn1ncc(-c2ccc3c(c2)CN(C2CCC(=O)NC2=O)C3=O)c1-c1cccs1 (centres unmarked) [Example 471]"
  DC50: "≥ 25 nM"
- molecule: "Cn1nc(-c2ccc3c(c2)CN(C2CCC(=O)NC2=O)C3=O)nc1-c1ccccc1 (centres unmarked) [Example 519]"
  DC50: "≥ 25 nM"
- molecule: "Cc1cc(F)ccc1-c1nc(-c2ccc3c(c2)CN(C2CCC(=O)NC2=O)C3=O)cn1C (centres unmarked) [Example 560]"
  DC50: "< 25 nM"

Query string: Tell me the measured DC50 of Cn1ncc(-c2ccc3c(c2)CN(C2CCC(=O)NC2=O)C3=O)c1-c1cnc2sccc2c1 (centres unmarked) [Example 394] , please.
Result string: ≥ 25 nM

Query string: Okay, and Cc1nc2ccc(-c3c(-c4ccc5c(c4)CN(C4CCC(=O)NC4=O)C5=O)ncn3C)cc2[nH]1 (centres unmarked) [Example 501] ?
Result string: ≥ 25 nM

Query string: Okay, and Cn1ncc(-c2ccc3c(c2)CN(C2CCC(=O)NC2=O)C3=O)c1-c1cccc(N2CCNCC2)c1 (centres unmarked) [Example 412] ?
Result string: ≥ 25 nM

----------
biological target: GSPT1 (Homo sapiens, UniProt P15170+Q96SW2); experiment: HiBiT degradation assay, GSPT1, Procedure A; type: cell-based; set-up: HiBit-GSPT1 KI HEK293(LgBit) Cells; host or cells: HEK293(LgBit) knock-in cells; conditions: six hours incubation
property: DC50

- molecule: "CNC(=O)c1cccc(-c2c(-c3ccc4c(c3)CN(C3CCC(=O)NC3=O)C4=O)cnn2C)c1 (stereo not shown)"
  DC50: "≥ 25 nM"
- molecule: "Cc1ccc(-c2c(-c3ccc4c(c3)CN(C3CCC(=O)NC3=O)C4=O)ncn2C)c(F)c1 (stereo not shown)"
  DC50: "< 25 nM"
- molecule: "CC(C)c1ccc(-c2c(-c3ccc4c(c3)CN(C3CCC(=O)NC3=O)C4=O)cnn2C)cc1 (stereo not shown)"
  DC50: "≥ 25 nM"
- molecule: "COc1cccc(COc2cccc(-c3c(-c4ccc5c(c4)CN(C4CCC(=O)NC4=O)C5=O)ncn3C)c2)c1 (stereo not shown)"
  DC50: "≥ 25 nM"
- molecule: "Cn1cnc(-c2ccc3c(c2)CN(C2CCC(=O)NC2=O)C3=O)c1-c1cc(F)ccc1F (stereo not shown)"
  DC50: "< 25 nM"
- molecule: "Cn1cc(-c2ccc3c(c2)CN(C2CCC(=O)NC2=O)C3=O)nc1-c1ccccc1 (stereo not shown)"
  DC50: "≥ 25 nM"
- molecule: "COc1cc(-c2c(-c3ccc4c(c3)CN(C3CCC(=O)NC3=O)C4=O)ncn2C)ccc1C (stereo not shown)"
  DC50: "≥ 25 nM"
- molecule: "Cc1ccc(-c2c(-c3ccc4c(c3)CN(C3CCC(=O)NC3=O)C4=O)ncn2C)cc1 (stereo not shown)"
  DC50: "< 25 nM"
- molecule: "Cn1ncc(-c2ccc3c(c2)CN(C2CCC(=O)NC2=O)C3=O)c1-c1ccc(N)nc1 (stereo not shown)"
  DC50: "≥ 25 nM"
- molecule: "Cn1cnc(-c2ccc3c(c2)CN(C2CCC(=O)NC2=O)C3=O)c1-c1cnn(-c2ccccc2)c1 (stereo not shown)"
  DC50: "≥ 25 nM"

Query string: Record lookup: for GSPT1 (Homo sapiens, UniProt P15170+Q96SW2), what DC50 belongs to Cn1cnc(-c2ccc3c(c2)CN(C2CCC(=O)NC2=O)C3=O)c1-c1ccc(F)c(C#N)c1 (stereo not shown) ?
Result string: ≥ 25 nM

Query string: Okay, and Cn1cnc(-c2ccc3c(c2)CN(C2CCC(=O)NC2=O)C3=O)c1-c1cccc(N2CCCC2)c1 (stereo not shown) ?
Result string: < 25 nM

Query string: Okay, and COc1ncccc1-c1c(-c2ccc3c(c2)CN(C2CCC(=O)NC2=O)C3=O)cnn1C (stereo not shown) ?
Result string: ≥ 25 nM

Query string: Okay, and Cn1c(-c2ccccc2)cnc1-c1ccc2c(c1)CN(C1CCC(=O)NC1=O)C2=O (stereo not shown) ?
Result string: < 25 nM

Query string: Okay, and Cn1cnc(-c2ccc3c(c2)CN(C2CCC(=O)NC2=O)C3=O)c1-c1cnn2ccccc12 (stereo not shown) ?
Result string: ≥ 25 nM

Query string: Okay, and COc1cccc(-c2c(-c3ccc4c(c3)CN(C3CCC(=O)NC3=O)C4=O)ncn2C)c1 (stereo not shown) ?
Result string: ≥ 25 nM
